# Measured target: human ALDH2*2 recombinant mutant enzyme (E487K) (Homo sapiens, UniProt P05091, E504K)
# Construct: His-tag (pTrcHis vector) (N); made in house; host or cells: E. coli BL21
# Sequence (P05091 18-517 E504K): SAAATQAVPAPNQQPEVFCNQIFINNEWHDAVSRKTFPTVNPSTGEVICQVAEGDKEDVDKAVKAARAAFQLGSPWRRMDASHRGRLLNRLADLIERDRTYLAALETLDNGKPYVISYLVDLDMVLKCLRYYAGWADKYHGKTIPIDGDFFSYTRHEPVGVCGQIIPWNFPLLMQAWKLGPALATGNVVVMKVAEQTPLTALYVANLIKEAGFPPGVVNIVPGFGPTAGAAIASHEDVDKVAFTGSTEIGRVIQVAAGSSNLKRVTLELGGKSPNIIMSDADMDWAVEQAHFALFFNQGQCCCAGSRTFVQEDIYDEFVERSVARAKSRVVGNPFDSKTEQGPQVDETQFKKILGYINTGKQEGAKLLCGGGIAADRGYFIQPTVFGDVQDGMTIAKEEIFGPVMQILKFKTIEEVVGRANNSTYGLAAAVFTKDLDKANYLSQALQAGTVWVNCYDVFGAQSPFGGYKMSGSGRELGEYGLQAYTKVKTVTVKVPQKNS
# Method summary: ALDH2 enzymatic assay (NADH at 340 nm), recombinant mutant enzyme
# Type: biochemical
# Parameters: key: −: no activation or inhibition; +: activation less than control 1; ++: activation similar to control 1, within 10%; +++: activation more than control 1 and less than control (compound 161); ++++: activation similar to compound 161, within 10%
# Condition info: activation relative to benchmarks control 1 and compound 161
Outcome measure: ALDH2 (mutant)

Smiles record: CCC(CC)Oc1nccc(C)c1C(=O)NCc1ccc(OC)c(F)c1
Measured target: human ALDH2*2 recombinant mutant enzyme (E487K) (Homo sapiens, UniProt P05091, E504K)
ALDH2 (mutant): +

Smiles record: O=C(NCc1ccc2c(c1)CCO2)c1c(Cl)ccnc1OCC1CC1
Measured target: human ALDH2*2 recombinant mutant enzyme (E487K) (Homo sapiens, UniProt P05091, E504K)
ALDH2 (mutant): +++

Smiles record: COc1ccc(CNC(=O)c2c(C)ccnc2OCC2CCC2)cc1F
Measured target: human ALDH2*2 recombinant mutant enzyme (E487K) (Homo sapiens, UniProt P05091, E504K)
ALDH2 (mutant): +

Smiles record: COc1cc(F)c(CNC(=O)c2c(Cl)ccnc2Cl)cc1F
Measured target: human ALDH2*2 recombinant mutant enzyme (E487K) (Homo sapiens, UniProt P05091, E504K)
ALDH2 (mutant): ++

Next molecule, please.
*Q* For the molecule shown here, CCS(=O)(=O)c1nccc(Cl)c1C(=O)NCc1ccc(OC)c(F)c1 , give the reported ALDH2 (mutant).
*A* +

====

# Method summary: Aqueous solubility
# Format: physicochemical
Outcome measure: Aqu. Solu. (µg/mL)

Molecule: COc1ccc(CNC(=O)c2c(Cl)cc[n+]([O-])c2OCC2CC2)cc1F
Unit string: µg/mL
Aqu. Solu.: 272
--
Molecule: COc1ccc(CNC(=O)c2c(Cl)cccc2OCC2CC2)cc1F
Unit string: µg/mL
Aqu. Solu.: 5

I: COc1ccc(CNC(=O)c2c(Cl)ccnc2OCC2CC2)cc1F
II: O=C(NCc1ccc2c(c1)OCO2)c1c(Cl)cccc1Cl [Control 1, reference compound]
*Q* Param pair: I , II . Output: the one whose Aqu. Solu. is numerically greater. // caller expects the label of the chosen entry
*A* I
(I: 28 µg/mL, II: 12 µg/mL)

====

# Measured target: CYP3A4 (Homo sapiens, UniProt P08684)
# Sequence (P08684 whole entry): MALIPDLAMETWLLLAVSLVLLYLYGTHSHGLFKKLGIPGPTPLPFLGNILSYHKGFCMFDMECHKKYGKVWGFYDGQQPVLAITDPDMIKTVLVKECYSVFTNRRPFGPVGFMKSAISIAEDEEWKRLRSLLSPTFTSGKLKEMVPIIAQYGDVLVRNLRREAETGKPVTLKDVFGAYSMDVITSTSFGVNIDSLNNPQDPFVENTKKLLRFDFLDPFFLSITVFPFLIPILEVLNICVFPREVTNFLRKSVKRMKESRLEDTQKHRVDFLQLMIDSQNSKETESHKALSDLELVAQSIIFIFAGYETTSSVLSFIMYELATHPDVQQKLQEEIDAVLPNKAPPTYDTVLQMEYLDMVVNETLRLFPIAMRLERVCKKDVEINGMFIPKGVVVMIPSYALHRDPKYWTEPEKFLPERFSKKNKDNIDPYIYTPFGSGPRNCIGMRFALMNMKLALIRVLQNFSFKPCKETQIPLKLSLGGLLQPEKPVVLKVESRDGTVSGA
# Method summary: Cyp inhibition 3A4
# Type: in vitro ADME
# Condition info: 10 μM
Outcome measure: inhibition at 10 µM (%)

I: COc1ccc(CNC(=O)c2c(Cl)ccnc2OCC2CC2)cc1F
II: COc1ccc(CNC(=O)c2c(Cl)cc[n+]([O-])c2OCC2CC2)cc1F
*Q* Lab log: flag the item ( I or II ) with the smaller inhibition at 10 µM figure. Answer by stating the label of the chosen item.
*A* II
(II: 7.7%, I: 14.9%)

====

# Measured target: human ALDH2*2 recombinant mutant enzyme (E487K) (Homo sapiens, UniProt P05091, E504K)
# Construct: His-tag (pTrcHis vector) (N); made in house; host or cells: E. coli BL21
# Method summary: ALDH2 enzymatic assay (NADH at 340 nm), recombinant mutant enzyme
# Format: biochemical
# Parameters: key: −: no activation or inhibition; +: activation less than control 1; ++: activation similar to control 1, within 10%; +++: activation more than control 1 and less than control (compound 161); ++++: activation similar to compound 161, within 10%
# Condition info: activation relative to benchmarks control 1 and compound 161
Outcome measure: ALDH2 (mutant)

Compound: COc1ccc(CNC(=O)c2c(Cl)ccnc2OCC2CCCC2)cc1F
ALDH2 (mutant): ++

Compound: COc1ccc(CNC(=O)c2c(Cl)ccnc2NCC(C)C)cc1F
ALDH2 (mutant): ++

Compound: CCCOc1cccc(Cl)c1C(=O)NCc1ccc(OC)c(F)c1
ALDH2 (mutant): +++

Compound: COc1ccc(CNC(=O)c2c(Cl)ccnc2OC)cc1F
ALDH2 (mutant): +++

Compound: COc1ccc(CNC(=O)c2c(Cl)ccnc2OCC2CCC2)cc1F
ALDH2 (mutant): +++

Compound: COc1ccc(CNC(=O)c2c(Cl)cccc2OCC2CCC2)cc1F
ALDH2 (mutant): +++

Compound: O=C(NCc1ccc2c(c1)OCO2)c1c(Cl)cccc1Cl [Control 1, reference compound]
ALDH2 (mutant): ++

Compound: COc1ccc(CNC(=O)c2c(C(F)(F)F)ccnc2OCC2CCC2)cc1F
ALDH2 (mutant): +

Compound: COc1ccc(CNC(=O)c2c(C)cccc2Br)cc1F
ALDH2 (mutant): +

Compound: COc1ccc(CNS(=O)(=O)c2c(Cl)cccc2OCC2CC2)cc1F
ALDH2 (mutant): +

*Q* GET /values?readout=ALDH2 (mutant)&item= COc1ccc(CNC(=O)c2c(Cl)cccc2OC2CCCC2)cc1F
*A* +++

*Q* If you can, please state the reported ALDH2 (mutant) value of C=CCOc1cccc(Cl)c1C(=O)NCc1ccc(OC)c(F)c1 .
*A* +++

*Q* Name the recorded ALDH2 (mutant) for COc1ccc(CNC(=O)c2c(Cl)cccc2NCc2cccc(C)c2)cc1F .
*A* −

*Q* Which ALDH2 (mutant) is reported for this compound? COc1ncc(CNC(=O)c2c(Cl)ccnc2OCC2CC2)cc1F
*A* ++

*Q* GET /values?readout=ALDH2 (mutant)&item= COc1cccc(CNC(=O)c2c(Cl)cccc2Cl)c1
*A* +

*Q* Fill blank: measured ALDH2 (mutant) of the compound CCOc1nccc(Cl)c1C(=O)NCc1ccc(OC)c(F)c1 is ____.
*A* ++

*Q* Would you mind telling me what ALDH2 (mutant) value was observed for COc1ccc(CNC(=O)c2c(Cl)cccc2OCC2(C)CC2)cc1F ?
*A* ++++
